Measured yeast surface expression, listed per entry for reference.
B1: scFv; the commonest letter at each place (parent)
chain 1: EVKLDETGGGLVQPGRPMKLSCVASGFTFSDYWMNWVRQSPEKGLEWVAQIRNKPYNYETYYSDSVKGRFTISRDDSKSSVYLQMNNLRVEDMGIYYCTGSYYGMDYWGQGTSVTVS
chain 2: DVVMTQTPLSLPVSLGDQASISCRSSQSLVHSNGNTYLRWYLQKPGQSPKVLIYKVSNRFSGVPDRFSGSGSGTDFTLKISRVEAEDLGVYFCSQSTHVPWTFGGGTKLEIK

variants of: B1; assay: yeast surface expression (ratio to wild type); higher = more expressed; conditions: format: scFv 4-4-20, heavy + light

[
  {
    "mut": "chain 1 G104E",
    "yeast surface expression": 1.04
  },
  {
    "mut": "chain 1 Y103E W108I",
    "yeast surface expression": 1.12
  },
  {
    "mut": "chain 1 G100T S101D",
    "yeast surface expression": 0.83
  },
  {
    "mut": "chain 1 S101D G104H D106A",
    "yeast surface expression": 0.353
  },
  {
    "mut": "chain 1 T28N M34E V37L",
    "yeast surface expression": 0.571
  },
  {
    "mut": "chain 1 G100D M105W W108Y",
    "yeast surface expression": 0.168
  },
  {
    "mut": "chain 1 D31H N35G",
    "yeast surface expression": 0.736
  },
  {
    "mut": "chain 1 S101V M105N",
    "yeast surface expression": 0.675
  },
  {
    "mut": "chain 1 G100Y W108L",
    "yeast surface expression": 0.393
  },
  {
    "mut": "chain 1 G104A M105E",
    "yeast surface expression": 0.648
  },
  {
    "mut": "chain 1 Y102F W108T",
    "yeast surface expression": 0.854
  },
  {
    "mut": "chain 1 D31H M34Q",
    "yeast surface expression": 0.268
  },
  {
    "mut": "chain 1 D31C N35Y",
    "yeast surface expression": 0.763
  },
  {
    "mut": "chain 1 M34F V37C",
    "yeast surface expression": 0.75
  },
  {
    "mut": "chain 1 Y32E V37Y",
    "yeast surface expression": 0.806
  },
  {
    "mut": "chain 1 G104H Y107M",
    "yeast surface expression": 0.478
  },
  {
    "mut": "chain 1 S30Y V37H",
    "yeast surface expression": 0.57
  },
  {
    "mut": "chain 1 G100K M105D",
    "yeast surface expression": 0.375
  },
  {
    "mut": "chain 1 D31E W36Q",
    "yeast surface expression": 0.326
  },
  {
    "mut": "chain 1 S101H Y107R W108C",
    "yeast surface expression": 0.22
  },
  {
    "mut": "chain 1 Y102G G104L",
    "yeast surface expression": 0.816
  },
  {
    "mut": "chain 1 G100D G109V",
    "yeast surface expression": 0.136
  },
  {
    "mut": "chain 1 T28L S30C",
    "yeast surface expression": 0.839
  },
  {
    "mut": "chain 1 S30W D31N",
    "yeast surface expression": 0.866
  },
  {
    "mut": "chain 1 G100E G104I",
    "yeast surface expression": 0.281
  },
  {
    "mut": "chain 1 D31A V37E",
    "yeast surface expression": 2.19
  },
  {
    "mut": "chain 1 S30Q D31E N35K",
    "yeast surface expression": 2.59
  },
  {
    "mut": "chain 1 Y32I W33T N35A",
    "yeast surface expression": 0.824
  },
  {
    "mut": "chain 1 D31S Y32W",
    "yeast surface expression": 0.83
  },
  {
    "mut": "chain 1 D31V N35C",
    "yeast surface expression": 0.424
  },
  {
    "mut": "chain 1 T28I N35R",
    "yeast surface expression": 0.849
  },
  {
    "mut": "chain 1 G100F G109K",
    "yeast surface expression": 0.265
  },
  {
    "mut": "chain 1 W33D N35G",
    "yeast surface expression": 0.941
  },
  {
    "mut": "chain 1 G100F W108A",
    "yeast surface expression": 0.671
  },
  {
    "mut": "chain 1 M105L Y107I",
    "yeast surface expression": 1.09
  },
  {
    "mut": "chain 1 G100S Y103H",
    "yeast surface expression": 1.01
  },
  {
    "mut": "chain 1 Y102G M105V",
    "yeast surface expression": 1.02
  },
  {
    "mut": "chain 1 T28G M34P N35T",
    "yeast surface expression": 0.318
  },
  {
    "mut": "chain 1 Y103M W108Q",
    "yeast surface expression": 0.547
  },
  {
    "mut": "unchanged",
    "yeast surface expression": 1
  },
  {
    "mut": "chain 1 Y103C M105G",
    "yeast surface expression": 0.611
  },
  {
    "mut": "chain 1 Y102H",
    "yeast surface expression": 1.17
  },
  {
    "mut": "chain 1 G104S W108R",
    "yeast surface expression": 0.26
  }
]
